These measurements were taken from patent US20240270741A1.

Target: FGFR2 (Homo sapiens, UniProt P21802)
Sequence (P21802 399-821 limits assumed): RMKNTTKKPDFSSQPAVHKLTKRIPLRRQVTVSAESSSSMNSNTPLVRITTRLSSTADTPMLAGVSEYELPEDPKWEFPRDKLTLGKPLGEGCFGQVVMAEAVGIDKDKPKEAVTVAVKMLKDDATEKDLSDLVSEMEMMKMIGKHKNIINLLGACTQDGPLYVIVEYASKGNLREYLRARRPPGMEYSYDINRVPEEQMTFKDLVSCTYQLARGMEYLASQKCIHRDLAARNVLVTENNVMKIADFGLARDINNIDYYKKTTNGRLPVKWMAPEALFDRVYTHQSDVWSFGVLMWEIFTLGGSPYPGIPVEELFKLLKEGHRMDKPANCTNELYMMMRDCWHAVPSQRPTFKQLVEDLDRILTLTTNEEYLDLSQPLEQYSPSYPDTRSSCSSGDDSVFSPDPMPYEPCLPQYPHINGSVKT
Experiment: FGFR wild type enzyme assay (HTRF KinEASE-TK), FGFR2
Conditions: Enz FGFR2 (nM), FGFR2 wild type enzyme
measured.quantity: IC50 (nM)
Answers are plain numbers, in nM.

[
  {
    "molecule": "Cc1c(-c2cc(Sc3ncccc3F)c3c(C#N)cnn3c2)cnn1C[C@@H]1CCCNC1",
    "IC50 [nM]": 4
  },
  {
    "molecule": "Cc1c(-c2cc(Sc3ncccc3F)c3c(C#N)cnn3c2)cnn1C1CCN(C(=O)C(C)(C)N(C)C)CC1",
    "IC50 [nM]": 1.6
  },
  {
    "molecule": "COCCN1CCC(n2ncc(-c3cc(Sc4ccccc4C#N)c4c(C#N)cnn4c3)c2C)CC1",
    "IC50 [nM]": 1
  },
  {
    "molecule": "Cc1c(-c2cc(Sc3ncccc3F)c3c(C#N)cnn3c2)cnn1C1CCN(S(C)(=O)=O)CC1",
    "IC50 [nM]": 2
  },
  {
    "molecule": "N#Cc1cnn2cc(-c3cnn([C@H]4CC[C@@H](O)CC4)c3)cc(Sc3ncccc3F)c12",
    "IC50 [nM]": 1
  },
  {
    "molecule": "Cc1c(-c2cc(Sc3ncccc3F)c3c(C#N)cnn3c2)cnn1C1CCNC(C)(C)C1 (stereo not shown)",
    "IC50 [nM]": 1
  },
  {
    "molecule": "Cc1c(-c2cc(Sc3ncccc3F)c3c(C#N)cnn3c2)cnn1[C@H](C)CN(C)C",
    "IC50 [nM]": 15
  },
  {
    "molecule": "Cc1c(-c2cc(Sc3ncccc3F)c3c(C#N)cnn3c2)cnn1[C@H]1CCNC[C@@H]1O",
    "IC50 [nM]": 3
  }
]

Hey, can you go through the list below and give me IC50 for every item?
1. Cc1c(-c2cc(Sc3ccccc3C#N)c3c(C#N)cnn3c2)cnn1[C@H]1CC[C@@H](O)CC1
2. Cc1c(-c2cc(Sc3ncccc3F)c3c(C#N)cnn3c2)cnn1[C@H]1CC[C@@H](NCC(=O)N(C)C)CC1
3. Cc1c(-c2cc(Sc3ncccc3F)c3c(C#N)cnn3c2)cnn1[C@H]1CC[C@@H](N(C)CCO)CC1
4. Cc1c(-c2cc(Sc3ccccc3C#N)c3c(C#N)cnn3c2)cnn1C1CCC(N(C)C)CC1 (stereo not shown)
5. CC(=O)N[C@H]1CC[C@@H](n2ncc(-c3cc(Sc4ccc(F)cc4C#N)c4c(C#N)cnn4c3)c2C)CC1
6. CCN(C)C1CCC(n2ncc(-c3cc(Sc4ncccc4F)c4c(C#N)cnn4c3)c2C)CC1 (stereo not shown)
7. Cc1c(-c2cc(Sc3c(F)cccc3C#N)c3c(C#N)cnn3c2)cnn1C1CCNCC1
8. Cc1c(-c2cc(Sc3ccc(F)cn3)c3c(C#N)cnn3c2)cnn1C1CCN(C)CC1

[A]
1: 0.5; 2: 1; 3: 1; 4: 0.5; 5: 1; 6: 1; 7: 1; 8: 5

Hey, can you go through the list below and give me IC50 for every item?
1. CC(=O)N1CCC(n2ncc(-c3cc(Sc4ncc(F)cc4F)c4c(C#N)cnn4c3)c2C)CC1
2. Cc1c(-c2cc(Sc3ccccc3C#N)c3c(C#N)cnn3c2)cnn1[C@H]1CC[C@H](O)CC1
3. CC(=O)N1CCC[C@H](n2ncc(-c3cc(Sc4ncc(F)cc4F)c4c(C#N)cnn4c3)c2C)C1
4. Cc1c(-c2cc(Sc3ccccc3C#N)c3c(C#N)cnn3c2)cnn1[C@H]1CC[C@@H](NS(C)(=O)=O)CC1
5. C[C@H](O)CN1CC[C@@H](n2cc(-c3cc(Sc4ccccc4C#N)c4c(C#N)cnn4c3)cn2)C1
6. CC(=O)N1CCC[C@H](Cn2ncc(-c3cc(Sc4ncccc4F)c4c(C#N)cnn4c3)c2C)C1
7. Cc1c(-c2cc(Sc3ccc(F)cc3C#N)c3c(C#N)cnn3c2)cnn1C1CCNCC1
8. Cc1c(-c2cc(Sc3ccccc3C#N)c3c(C#N)cnn3c2)cnn1[C@H]1CC[C@@](C)(N)CC1

[A]
[5, 0.7, 3, 1, 0.4, 5, 1, 0.3]

Hey, can you go through the list below and give me IC50 for every item?
1. Cc1c(-c2cc(Sc3ncccc3F)c3c(C#N)cnn3c2)cnn1[C@H]1CC[C@@H](CO)CC1
2. Cc1c(-c2cc(Sc3ccccc3C#N)c3c(C#N)cnn3c2)cnn1C1CC2CCC(C1)N2C (stereo not shown)
3. CC(=O)N1CC2(CC(n3ncc(-c4cc(Sc5ncccc5F)c5c(C#N)cnn5c4)c3C)C2)C1
4. Cc1c(-c2cc(Sc3ccccc3C#N)c3c(C#N)cnn3c2)cnn1C1CCN(CCO)CC1
5. N#Cc1cnn2cc(-c3cnn([C@@H]4CCCNC4)c3)cc(Sc3ncccc3F)c12
6. N#Cc1ccccc1Sc1cc(-c2cnn(CC(F)(F)F)c2)cn2ncc(C#N)c12
7. CC(=O)N[C@H]1CC[C@H](n2ncc(-c3cc(Sc4ccccc4C#N)c4c(C#N)cnn4c3)c2C)CC1

[A]
1. 2
2. 1
3. 2
4. 1
5. 2
6. 2
7. 1
